Measured pIC50, listed per entry for reference.
system: 282377-053-R-J1-PDC complex spheroid viability; assay: Anticancer human tumor 282377-053-R-J1-PDC patient-derived colon adenocarcinoma cell line growth inhibition [RAS]; settings: curve of first compound; second compound 1 µM;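 note: spheroids exposed to agents for seven days before readout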
pIC50: −log10 of the molar value.

Here is how some compounds turned out for pIC50.
compound	pIC50
CC(C)n1nc(-c2ccc3oc(N)nc3c2)c2c(N)ncnc21 + C=CC(=O)N1CCN(c2nc(OCC3CCCN3C)nc3c(F)c(-c4nc(N)cc(C)c4C(F)(F)F)c(Cl)cc23)C(C)C1	< 7.00
C=CC(=O)N1CCN(c2nc(OCC3CCCN3C)nc3c(F)c(-c4nc(N)cc(C)c4C(F)(F)F)c(Cl)cc23)C(C)C1 (stereo not given) + C#Cc1c(F)ccc2cc(O)cc(-c3ncc4c(N5CC6CCC(C5)N6)nc(OCC56CCCN5CC(F)C6)nc4c3F)c12	< 6.00
NC1c2ccccc2OC12CCN(c1cnc3c(N4CCCc5ncccc54)n[nH]c3n1)CC2 (stereo not given) + C=CC(=O)N1CCN(c2nc(OCC3CCCN3C)nc3c(F)c(-c4nc(N)cc(C)c4C(F)(F)F)c(Cl)cc23)C(C)C1	< 5.00
C=CC(=O)Nc1cc(Nc2nccc(-c3cn(C)c4ccccc34)n2)c(OC)cc1N(C)CCN(C)C + C#Cc1c(F)ccc2cc(O)cc(-c3ncc4c(N5CC6CCC(C5)N6)nc(OCC56CCCN5CC(F)C6)nc4c3F)c12	< 6.00

Query: Reported pIC50 for 282377-053-R-J1-PDC complex spheroid viability, given CC(=O)OC12COC1CC(O)C1(C)C(=O)C(O)C3=C(C)C(OC(=O)C(O)C(NC(=O)OC(C)(C)C)c4ccccc4)CC(O)(C(OC(=O)c4ccccc4)C21)C3(C)C (stereo not given) + C=CC(=O)N1CCN(c2nc(OCC3CCCN3C)nc3c(F)c(-c4nc(N)cc(C)c4C(F)(F)F)c(Cl)cc23)C(C)C1 ?
Response: > 7.50
